# ASSAY_METHOD_TEXT: In vitro cytotoxicity assay (MTT cell viability) in HepG2 cells
# Format: cell-based, human
# CONDITION_SUMMARY: human
READOUT_TYPE: CC50 at 7 days

- Cc1cc(NC(=O)c2c(C)c(C(=O)C(=O)NC3(C(=O)NC(C)(C)CO)CCOCC3)n(C)c2C)ccc1F [Example 681]: > 30 µM
- Cc1c(C(=O)Nc2cc(F)c(F)c(F)c2)c(C)n(C)c1C(=O)C(=O)Nc1ccc(F)c(F)c1 [Example 322]: 5 to 30 µM
- Cc1c(C(=O)Nc2ccc(F)c(F)c2)c2n(c1C(=O)C(=O)N[C@H]1CCC[C@H]1O)CCCC2 [Example 458]: 5 to 30 µM
- Cc1cc(NC(=O)c2c(C)c(C(=O)C(=O)NC3COCC(O)C3)n(C)c2C)ccc1F (stereo not drawn) [Example 608]: > 30 µM
- Cc1cc(NC(=O)c2c(C)c(C(=O)C(=O)NC(C)(C)C)n(C)c2C)ccc1F [Example 2]: > 30 µM
- COC(=O)[C@@H](NC(=O)C(=O)c1c(C)c(C(=O)Nc2ccc(F)c(C)c2)c(C)n1C)[C@@H](C)O [Example 27]: > 30 µM
- Cc1cc(NC(=O)c2c(C)c(C(=O)C(=O)N[C@@H]3c4ccccc4C[C@H]3O)n(C)c2C)ccc1F [Example 261]: 0.5 to 4.99 µM
- O=C(NC1(CO)CC1)C(=O)c1c(Cl)c(C(=O)Nc2ccc(F)c(Cl)c2)c2n1CCCC2 [Example 501]: 5 to 30 µM

Provide the reported CC50 at 7 days of each entry below, same order.
1. CC(C)(C)NC(=O)C(=O)c1cc(C(=O)Nc2cc(F)c(F)c(F)c2)c2n1CCCC2 [Example 396]
2. Cc1c(C(=O)Nc2cncc(Cl)c2)c(C)n(C)c1C(=O)C(=O)N[C@H]1CC[C@@H](O)CC1 [Example 726]
3. Cc1cc(NC(=O)c2c(C)c(C(=O)C(=O)N[C@H]3CCOC[C@@H]3O)n(C)c2C)ccc1F [Example 187]
4. Cc1cc(NC(=O)c2c(C)c(C(=O)C(=O)N[C@H]3CNC(=O)C3(C)C)n(C)c2C)ccc1F [Example 621]
5. Cc1c(C(=O)Nc2ccc(F)c(Cl)c2)c(C)n(C)c1C(=O)C(=O)Nc1cccnc1 [Example 311]
6. Cc1cc(NC(=O)c2c(C)c(C(=O)C(=O)N[C@H]3CC[C@@H](O)CC3)n(C)c2C)cc(Cl)n1 [Example 628]
7. Cc1c(C(=O)Nc2ccc(F)nc2)c(C)n(C)c1C(=O)C(=O)NC(C)(C)CO [Example 120]
8. Cc1cc(NC(=O)c2c(C)c(C(=O)C(=O)NC(C)(C)C(F)(F)F)n3c2CCCC3)cnc1F [Example 468]

result:
1. 5 to 30 µM
2. > 30 µM
3. > 30 µM
4. > 30 µM
5. > 30 µM
6. > 30 µM
7. > 30 µM
8. > 30 µM

Provide the reported CC50 at 7 days of each entry below, same order.
1. Cc1cc(NC(=O)c2c(Cl)c(C(=O)C(=O)NCc3cnc(N)s3)n3c2CCC3)cnc1F [Example 734]
2. Cc1cc(NC(=O)c2c(C)c(C(=O)C(=O)NC3CC(=O)Nc4ccccc43)n(C)c2C)ccc1F (stereo not drawn) [Example 626]
3. Cc1noc([C@H](C)NC(=O)C(=O)c2c(Cl)c(C(=O)Nc3cnc(F)c(C)c3)c3n2CCC3)n1 [Example 736]
4. Cc1cc(NC(=O)c2c(C)c(C(=O)C(=O)N[C@@H]3c4ccccc4C[C@@H]3O)n(C)c2C)ccc1F [Example 258]
5. Cc1cc(NC(=O)c2c(Cl)c(C(=O)C(=O)NC3(CO)CC(F)(F)C3)n3c2CCC3)ccc1F [Example 548]
6. O=C(N[C@H]1C[C@H](O)C1)C(=O)c1c(Cl)c(C(=O)Nc2ccc(F)c(F)c2)c2n1CCCC2 [Example 533]
7. Cc1cc(NC(=O)c2cc(C(=O)C(=O)NC(C)(C)C)n3c2COCC3)ccc1F [Example 583]

result:
1: > 30 µM; 2: > 30 µM; 3: 5 to 30 µM; 4: 5 to 30 µM; 5: 5 to 30 µM; 6: > 30 µM; 7: > 30 µM

Provide the reported CC50 at 7 days of each entry below, same order.
1. Cc1cc(NC(=O)c2c(C)c(C(=O)C(=O)NC3CCN(C)C(=O)C3)n(C)c2C)ccc1F (stereo not drawn) [Example 609]
2. Cc1c(C(=O)Nc2ccc(F)nc2)c(C)n(C)c1C(=O)C(=O)NC(C)C(F)(F)F (stereo not drawn) [Example 119]
3. Cc1c(C(=O)Nc2ccc(F)c(F)c2)c(C)n(C)c1C(=O)C(=O)NC1(CO)CCCCC1 [Example 616]
4. Cc1cc(NC(=O)C(=O)c2c(C)c(C(=O)Nc3ccc(F)c(C)c3)c(C)n2C)ccc1F [Example 216]
5. Cc1noc([C@@H](NC(=O)C(=O)c2c(Cl)c(C(=O)Nc3ccc(F)c(C)c3)c3n2CCC3)C(C)C)n1 [Example 543]
6. Cc1nc2c(s1)C(NC(=O)C(=O)c1c(C)c(C(=O)Nc3cnc(F)c(C)c3)c(C)n1C)CCC2 (stereo not drawn) [Example 606]
7. Cc1cc(NC(=O)c2c(C)c(C(=O)C(=O)NC3(CN4CCOCC4)CCCCC3)n(C)c2C)ccc1F [Example 596]

result:
1. > 30 µM
2. > 30 µM
3. > 30 µM
4. 5 to 30 µM
5. > 30 µM
6. > 30 µM
7. > 30 µM
